Reference source: ChEMBL document CHEMBL1201862

Test system: OVCAR-5
experimental-protocol: NCI tumour cell line growth inhibition, 48 h
Active and inactive are the calls of the source. No stated cut-off is given here; in the data, active = GI50 up to about 1.1 µM and inactive = higher.
Outcomes: 1 (yes) for active, 0 (no) for inactive

compound=COc1ccc(/C=N/c2ccc(-c3nc4ccccc4[nH]3)cc2)cc1OC assigned_class="0 (no)"
compound=CC(=O)O[C@H]1C(=O)[C@@]2(C)[C@H]([C@H](OC(=O)C3CCCCC3)[C@]3(O)C[C@H](OC(=O)[C@H](O)[C@@H](NC(=O)OC(C)(C)C)c4ccccc4)C(C)=C1C3(C)C)[C@]1(OC(C)=O)CO[C@@H]1C[C@@H]2O assigned_class="1 (yes)"
compound=COc1cc2c3cc1Oc1c(O)c(OC)cc4c1[C@H](Cc1ccc(cc1)Oc1cc(ccc1O)C[C@H]3N(C)CC2)N(C)CC4 assigned_class="0 (no)"
compound="COc1cc(C)c(C2NC(=O)c3ccccc3N2)cc1C (centres undefined)" assigned_class="1 (yes)"
compound="CC(=O)Nc1ccc(C2CC(c3ccc([N+](=O)[O-])cc3)=Nc3ccccc3S2)cc1 (centres undefined)" assigned_class="0 (no)"
compound=CN(C)c1ccc(/C=N\NC(=O)CSCC(=O)N/N=C/c2ccc(N(C)C)cc2)cc1 assigned_class="0 (no)"
compound=CCOC(=O)C1(C#N)CC1 assigned_class="0 (no)"
compound=Cc1cc(C)nc(NS(=O)(=O)c2ccc(Nc3c4ccccc4nc4ccc(C(=O)Nc5ccc(S(=O)(=O)N=C(N)N)cc5)cc34)cc2)n1 assigned_class="0 (no)"
compound=N#Cc1ccc2[nH]c3c(c2c1)CC(=O)Nc1ccccc1-3 assigned_class="0 (no)"

###

System: BT-549
experimental-protocol: NCI tumour cell line growth inhibition, 48 h
Calls of active or inactive are those of the source. No stated cut-off is given here; in the data, active = GI50 up to about 1.1 µM and inactive = higher.
Labels: Y for active, N for inactive

molecule=CC(=O)Nc1ncc2c(n1)-c1ccccc1OC2 assigned_class=N
molecule="COc1cc(C)c(C2NC(=O)c3ccccc3N2)cc1C (stereo unspecified)" assigned_class=Y
molecule="COC(=O)C(CNC(=O)/C=C/c1ccc(OC)c(OC)c1)NC(=O)/C=C/c1ccc(OC)c(OC)c1 (stereo unspecified)" assigned_class=N
molecule="O=C(O)CC1OCC=C2C[N+]3([O-])CCC45c6ccccc6NC4C1C2CC53 (stereo unspecified)" assigned_class=N
molecule=COC(=O)/C(=C\c1cn(C(C)=O)c2ccccc12)P(=O)(OC)OC assigned_class=N
molecule="C=CC(COC(=O)C(C)(C)OC(C)=O)c1ccc(OC(=O)C(C)C)c(OC)c1 (stereo unspecified)" assigned_class=N
molecule=N#Cc1ccc2[nH]c3c(c2c1)CC(=O)Nc1ccccc1-3 assigned_class=N
molecule="COc1ccc(C2SC(C)C(=O)N2c2nc(-c3nc(-c4ccc(Cl)cc4)cs3)cs2)cc1 (stereo unspecified)" assigned_class=N
molecule="C[C@]12CC[C@@H]3c4cc(C=O)c(OCc5ccccc5)cc4CC[C@H]3[C@@H]1CCC2OCc1ccccc1 (stereo partly specified)" assigned_class=N
molecule="COC(=O)C(=O)C(C(=O)C(=O)Nc1ccc(Cl)cc1Cl)c1nc2ccc(Cl)cc2nc1O (stereo unspecified)" assigned_class=N
molecule=c1ccc(P(CCP(c2ccccn2)c2ccccn2)c2ccccc2)cc1 assigned_class=N
molecule=Cc1csc(N/C=C2\C(=O)Oc3ccccc3C2=O)n1 assigned_class=N
molecule="CC(C)c1cc(C(C)C)c(S(=O)(=O)N/N=C2\\CC3CCC2(C)C3(C)C)c(C(C)C)c1 (stereo unspecified)" assigned_class=N
molecule="CCSC1SC(c2ccccc2)(c2ccccc2)c2ccccc21 (stereo unspecified)" assigned_class=N
molecule=COc1ccc(-c2nc3c(C(=O)NCCN(C)C)cccc3c3ccccc23)cc1 assigned_class=N
molecule=CC(=O)Nc1n[n+]([O-])c2cc(C)ccc2[n+]1[O-] assigned_class=N
molecule=CN(C)CCCn1c2c3ccccc3ccc2c2oc(=O)c3ccccc3c21 assigned_class=N
molecule=O=C1Oc2ccccc2C(=O)/C1=C/N1C(=O)/C(=C/c2ccc([N+](=O)[O-])cc2)SC1=S assigned_class=N
molecule="CC1(C)C2CC(O)C1(C)CC2=O (stereo unspecified)" assigned_class=N
molecule="O=[N+]([O-])c1ccc(/C=N/CC2CCCN3CCCCC23)cc1 (stereo unspecified)" assigned_class=N
molecule=O=[N+]([O-])c1ccc([I+]c2ccccc2)cc1 assigned_class=N

###

Tested on: SW-620
experimental-protocol: NCI tumour cell line growth inhibition, 48 h
Calls of active or inactive are those of the source. No stated cut-off is given here; in the data, active = GI50 up to about 1.1 µM and inactive = higher.
Outcomes: t for active, f for inactive

compound=COc1ccc(CC#N)c(OCc2ccccc2)c1 assigned_class=f
compound=O=C(O)[C@H](CCC[C@H]1C(=O)O[C@H](c2ccccc2)[C@H](c2ccccc2)N1C(=O)OCc1ccccc1)N[C@@H](c1ccccc1)[C@H](O)c1ccccc1 assigned_class=f
compound=O=C(c1cccc2cc(O)ccc12)c1cn(CCN2CCOCC2)c2ccccc12 assigned_class=f
compound=COc1ccc(/C=N/n2c(Cc3ccc(Cl)cc3)n[nH]c2=O)cc1 assigned_class=f
compound=CSc1ncc2c(C#N)c3[nH]c4ccccc4n3c(=O)c2n1 assigned_class=f
compound=CCOC(CN(C)C(=O)OCC(Cl)(Cl)Cl)OCC assigned_class=f
compound=COc1cc2c3cc1Oc1c(O)c(OC)cc4c1[C@H](Cc1ccc(cc1)Oc1cc(ccc1O)C[C@H]3N(C)CC2)N(C)CC4 assigned_class=f
compound=N/C(=N\n1c(=S)[nH]c2ccccc2c1=O)Nn1c(=S)[nH]c2ccccc2c1=O assigned_class=f
compound="OC1C=C2C3CN(Cc4cc5c(cc43)OCO5)[C@H]2C[C@@H]1O (some centres undefined)" assigned_class=f
compound="Cn1c2c(c3ccccc31)CCN1C(=O)C34CCCC3CC21S4 (centres undefined)" assigned_class=f
compound=COC(=O)C1=C(C)NC(C)=C(C(=O)OC)C1c1cccc(N=O)c1 assigned_class=f
compound=O=C(/C=C/c1ccccc1)/C=N/N1C(=S)N(c2ccccc2)C(=N\c2ccccc2)/C1=N/c1ccccc1 assigned_class=f
compound=COc1cc2c(cc1OCCCOc1cc3c(cc1OC)C(=O)N1CCC[C@H]1C(=O)N3)N=C[C@@H]1CCCN1C2=O assigned_class=f
compound=NCCSC(c1ccccc1)c1ccccc1 assigned_class=f
compound=CCOP(=O)(OCC)/C(C#N)=C/c1cnc(-c2ccccc2)[nH]1 assigned_class=f
compound=N=CCCN(CCC=N)c1ccc(/C=C2\CN(NC(=O)c3ccc(Cl)cc3)C(c3ccccc3)=N2)cc1 assigned_class=f
compound="COC(=O)c1ccccc1C1=C([N+](=O)[O-])C(c2ccccc2)C(C#N)=C(N)O1 (centres undefined)" assigned_class=f
compound=CN(C)c1ccc(/C=C2\N=C(N/N=C/c3ccccc3)NC2=O)cc1 assigned_class=f
compound=COc1ccc(/C=C/C(=O)c2ccccc2)cc1OC assigned_class=f
compound="CC(=O)C1=CCC2c3[nH]c4ccccc4c3CCN2C1 (centres undefined)" assigned_class=f
compound=Cc1cccc(-c2cc(O)c3ccc(C)nc3n2)c1 assigned_class=t
compound="C=CC(COC(=O)C(C)(C)OC(C)=O)c1ccc(OC(=O)C(C)C)c(OC)c1 (centres undefined)" assigned_class=f
compound=Cc1cc(S(=O)(=O)Nc2nnc3cnc4ccccc4n23)c(S)cc1Cl assigned_class=f
compound="CC1CC[C@@]2(OC1)OC1CC3C4CCC5C[C@@H](OC6OC(CO)C(OC7OC(CO)C(O)C(OC8OC(CO)C(O)C(OC9OC(CO)C(O)C(O)C9O)C8O)C7OC7OC(CO)C(O)C(O)C7O)C(O)C6O)[C@H](O)C[C@]5(C)C4CC[C@]3(C)C1[C@@H]2C (some centres undefined)" assigned_class=f
compound=O=c1cc[nH]c2ccc3nn[nH]c3c12 assigned_class=f
compound=COC(=O)/C(=C\c1cn(C(C)=O)c2ccccc12)P(=O)(OC)OC assigned_class=f
compound="C=CCCC1(C)CCCNC1=S (centres undefined)" assigned_class=f
compound="O=C1C2C3C=C4c5ccccc5N(c5ccccc5)C4(C2C(=O)N1c1ccc([N+](=O)[O-])cc1)[C@H]1C(=O)N(c2ccc([N+](=O)[O-])cc2)C(=O)[C@@H]31 (some centres undefined)" assigned_class=f
compound=O=C1c2cccc(NCCCNCCO)c2C(=O)c2cccc(NCCCNCCO)c21 assigned_class=f
compound=Nc1nc(Cl)cc(NCC2(CO)CC(=O)C2)n1 assigned_class=f
compound="COC(=O)[C@@]12CC(C(C)C)[C@H]3CC(C(=O)C=C1OC)[C@H]32 (some centres undefined)" assigned_class=f
compound=NS(=O)(=O)c1ccc(NC(=O)N/N=C/c2ccccc2[N+](=O)[O-])cc1 assigned_class=f
compound=Cc1cn([C@@H]2C[C@H](CO)[C@@H]2O)c(=O)[nH]c1=O assigned_class=f
compound=CCCCOC(=O)NC(=O)c1cn(CCSCCOC(=O)NCCCCCCNC(=O)OCCSCCn2cc(C(=O)NC(=O)OCCCC)c(=O)[nH]c2=O)c(=O)[nH]c1=O assigned_class=f
compound="CC1(C)C2CC(O)C1(C)CC2=O (centres undefined)" assigned_class=f
compound=O=C(c1ccco1)N(C(=S)N1CCN(c2ccccn2)CC1)c1ccccc1 assigned_class=f
compound=CCCc1cc(=O)oc2c3c(c4c(c12)OC(C)(C)CC4)O[C@H](C)[C@@H](C)[C@H]3O assigned_class=f
compound=COc1cccc2c1Cc1cc(-c3ccccc3)[n+](C)n1-2 assigned_class=f
compound="COC(=O)C(C(=O)C(=O)Nc1nc2ccc(OC)cc2s1)c1cnc2ccccc2n1 (centres undefined)" assigned_class=f
